# System: NCI-H1417 complex spheroids, growth % test/control
# measurement protocol: Anticancer human tumor NCI-H1417 cell line growth inhibition [Asc];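 further: spheroids exposed to compounds for 7 days; 100% = DMSO vehicle control wells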
# measurement conditions: second compound 0.316 µM; first compound 0.01 µM; hits give low values
Exercise: state measured viability, T/C for each of the molecules provided.
Numbers only, in %.

* CCN1CCN(Cc2ccc(Nc3ncc(F)c(-c4cc(F)c5nc(C)n(C(C)C)c5c4)n3)nc2)CC1 + Cc1c(S(C)(=O)=O)c(-c2cc(F)cc(N3CCN(c4ccc(NS(=O)(=O)c5ccc(NC(CCN6CCC(C(=O)OCCCP(=O)(O)O)CC6)CSc6ccccc6)c(S(=O)(=O)C(F)(F)F)c5)cc4)CC3)c2)c(-c2ccc(Cl)cc2)n1C(C)C | 45.8

Now look at this entry.
Returns the measured viability, T/C for the input molecule. Input: CCN1CCN(Cc2ccc(Nc3ncc(F)c(-c4cc(F)c5nc(C)n(C(C)C)c5c4)n3)nc2)CC1 + CNC(C)C(=O)NC1CN(S(=O)(=O)c2cccc(S(=O)(=O)N3CCC4CCC(C(=O)NC(c5ccccc5)c5ccccc5)N4C(=O)C(NC(=O)C(C)NC)C3)c2)CCC2CCC(C(=O)NC(c3ccccc3)c3ccccc3)N2C1=O
105

---

Hi there, I'd appreciate the recorded viability, T/C for every entry that follows.
# Test system: NCI-H1417 complex spheroids, growth % test/control
# measurement protocol: Anticancer human tumor NCI-H1417 cell line growth inhibition [Asc];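 further: spheroids exposed to compounds for 7 days; 100% = DMSO vehicle control wells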
# measurement conditions: second compound 1 µM; first compound 0.01 µM; hits give low values
# Description: Multicellular complex tumor spheroid response to apoptosis pathway targeting inhibitors Alrizomadlin, Pelcitoclax, and Dasminapant in combination with a variety of drugs and investigational agents in selected tumor cell lines […] Compounds. […] If the clinical Cmax for an agent had not been determined, the highest concentration tested was 10 microM. […]
Give bare numbers, in %.

Example compounds with recorded viability, T/C:
- Cn1ncnc1[C@H]1c2n[nH]c(=O)c3cc(F)cc(c23)N[C@@H]1c1ccc(F)cc1 + Cc1c(S(C)(=O)=O)c(-c2cc(F)cc(N3CCN(c4ccc(NS(=O)(=O)c5ccc(NC(CCN6CCC(C(=O)OCCCP(=O)(O)O)CC6)CSc6ccccc6)c(S(=O)(=O)C(F)(F)F)c5)cc4)CC3)c2)c(-c2ccc(Cl)cc2)n1C(C)C: 3.13
- CCN1CCN(Cc2ccc(Nc3ncc(F)c(-c4cc(F)c5nc(C)n(C(C)C)c5c4)n3)nc2)CC1 + Cc1c(S(C)(=O)=O)c(-c2cc(F)cc(N3CCN(c4ccc(NS(=O)(=O)c5ccc(NC(CCN6CCC(C(=O)OCCCP(=O)(O)O)CC6)CSc6ccccc6)c(S(=O)(=O)C(F)(F)F)c5)cc4)CC3)c2)c(-c2ccc(Cl)cc2)n1C(C)C: 12
- Cn1ncnc1[C@H]1c2n[nH]c(=O)c3cc(F)cc(c23)N[C@@H]1c1ccc(F)cc1 + CNC(C)C(=O)NC1CN(S(=O)(=O)c2cccc(S(=O)(=O)N3CCC4CCC(C(=O)NC(c5ccccc5)c5ccccc5)N4C(=O)C(NC(=O)C(C)NC)C3)c2)CCC2CCC(C(=O)NC(c3ccccc3)c3ccccc3)N2C1=O: 81.3

Attention now shifts to the item below.
I would be grateful if you could share the reported viability, T/C for NC1CCC(NC2CC2c2ccccc2)CC1 (centres undefined) + Cc1c(S(C)(=O)=O)c(-c2cc(F)cc(N3CCN(c4ccc(NS(=O)(=O)c5ccc(NC(CCN6CCC(C(=O)OCCCP(=O)(O)O)CC6)CSc6ccccc6)c(S(=O)(=O)C(F)(F)F)c5)cc4)CC3)c2)c(-c2ccc(Cl)cc2)n1C(C)C .
11.2

---

# Tested on: NCI-H1417 complex spheroids, growth % test/control
# measurement protocol: Anticancer human tumor NCI-H1417 cell line growth inhibition [Asc]; active means viability on the fitted dose curve at most 10% of control; inactive means the rest;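 further: spheroids exposed to compounds for 7 days; 100% = DMSO vehicle control wells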
# measurement conditions: second compound 0.316 µM; first compound 0.01 µM
Pick from y = active, n = inactive when you respond.

Look over these answered cases.
• O=C(c1ccc(F)c(F)c1Nc1ccc(I)cc1F)N1CC(O)([C@@H]2CCCCN2)C1 + CNC(C)C(=O)NC1CN(S(=O)(=O)c2cccc(S(=O)(=O)N3CCC4CCC(C(=O)NC(c5ccccc5)c5ccccc5)N4C(=O)C(NC(=O)C(C)NC)C3)c2)CCC2CCC(C(=O)NC(c3ccccc3)c3ccccc3)N2C1=O = n
• CNC(C)C(=O)NC1CN(S(=O)(=O)c2cccc(S(=O)(=O)N3CCC4CCC(C(=O)NC(c5ccccc5)c5ccccc5)N4C(=O)C(NC(=O)C(C)NC)C3)c2)CCC2CCC(C(=O)NC(c3ccccc3)c3ccccc3)N2C1=O (stereo unspecified) + Cc1c(S(C)(=O)=O)c(-c2cc(F)cc(N3CCN(c4ccc(NS(=O)(=O)c5ccc(NC(CCN6CCC(C(=O)OCCCP(=O)(O)O)CC6)CSc6ccccc6)c(S(=O)(=O)C(F)(F)F)c5)cc4)CC3)c2)c(-c2ccc(Cl)cc2)n1C(C)C = n
• O=C(c1ccc(F)c(F)c1Nc1ccc(I)cc1F)N1CC(O)([C@@H]2CCCCN2)C1 + Cc1c(S(C)(=O)=O)c(-c2cc(F)cc(N3CCN(c4ccc(NS(=O)(=O)c5ccc(NC(CCN6CCC(C(=O)OCCCP(=O)(O)O)CC6)CSc6ccccc6)c(S(=O)(=O)C(F)(F)F)c5)cc4)CC3)c2)c(-c2ccc(Cl)cc2)n1C(C)C = n

Write down the call the test reported for this compound. Item: COc1c(OCCCN2CCOCC2)ccc2c3n(c(=NC(=O)c4cnc(N)nc4)nc12)CCN3 + CNC(C)C(=O)NC1CN(S(=O)(=O)c2cccc(S(=O)(=O)N3CCC4CCC(C(=O)NC(c5ccccc5)c5ccccc5)N4C(=O)C(NC(=O)C(C)NC)C3)c2)CCC2CCC(C(=O)NC(c3ccccc3)c3ccccc3)N2C1=O
n

Which outcome did this test record for the compound COc1c(OCCCN2CCOCC2)ccc2c3n(c(=NC(=O)c4cnc(N)nc4)nc12)CCN3 + Cc1c(S(C)(=O)=O)c(-c2cc(F)cc(N3CCN(c4ccc(NS(=O)(=O)c5ccc(NC(CCN6CCC(C(=O)OCCCP(=O)(O)O)CC6)CSc6ccccc6)c(S(=O)(=O)C(F)(F)F)c5)cc4)CC3)c2)c(-c2ccc(Cl)cc2)n1C(C)C ?
n

Please share the test call associated with Cn1ncnc1[C@H]1c2n[nH]c(=O)c3cc(F)cc(c23)N[C@@H]1c1ccc(F)cc1 + Cc1c(S(C)(=O)=O)c(-c2cc(F)cc(N3CCN(c4ccc(NS(=O)(=O)c5ccc(NC(CCN6CCC(C(=O)OCCCP(=O)(O)O)CC6)CSc6ccccc6)c(S(=O)(=O)C(F)(F)F)c5)cc4)CC3)c2)c(-c2ccc(Cl)cc2)n1C(C)C .
y

---

Please respond with reported viability, T/C for every item in the list.
# Tested on: NCI-H1417 complex spheroids, growth % test/control
# measurement protocol: Anticancer human tumor NCI-H1417 cell line growth inhibition [Asc];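 further: spheroids exposed to compounds for 7 days; 100% = DMSO vehicle control wells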
# measurement conditions: second compound 10 µM; first compound 0.0316 µM; hits give low values
Numbers only, in %.

• C#Cc1c(F)ccc2cc(O)cc(-c3ncc4c(N5CC6CCC(C5)N6)nc(OCC56CCCN5CC(F)C6)nc4c3F)c12 (configuration not stated) + Cc1c(S(C)(=O)=O)c(-c2cc(F)cc(N3CCN(c4ccc(NS(=O)(=O)c5ccc(NC(CCN6CCC(C(=O)OCCCP(=O)(O)O)CC6)CSc6ccccc6)c(S(=O)(=O)C(F)(F)F)c5)cc4)CC3)c2)c(-c2ccc(Cl)cc2)n1C(C)C = 2.05

Could you now look at the following compound, please?
Look up viability, T/C: C=C(F)C(=O)N1CCN(c2nc(OCC3CCCN3C)nc3c2CCN(c2cccc4cccc(Cl)c24)C3)CC1CC#N (configuration not stated) + Cc1c(S(C)(=O)=O)c(-c2cc(F)cc(N3CCN(c4ccc(NS(=O)(=O)c5ccc(NC(CCN6CCC(C(=O)OCCCP(=O)(O)O)CC6)CSc6ccccc6)c(S(=O)(=O)C(F)(F)F)c5)cc4)CC3)c2)c(-c2ccc(Cl)cc2)n1C(C)C
2.01

---

# Tested on: NCI-H1417 complex spheroids, growth % test/control
# measurement protocol: Anticancer human tumor NCI-H1417 cell line growth inhibition [Asc];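 further: spheroids exposed to compounds for 7 days; 100% = DMSO vehicle control wells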
# measurement conditions: second compound 0.949 µM; first compound 0.00316 µM; hits give low values
Classify: Y when viability, T/C is strictly less than 80%; N when viability, T/C is not.

Example entries begin here.
- CNC(C)C(=O)NC1CN(S(=O)(=O)c2cccc(S(=O)(=O)N3CCC4CCC(C(=O)NC(c5ccccc5)c5ccccc5)N4C(=O)C(NC(=O)C(C)NC)C3)c2)CCC2CCC(C(=O)NC(c3ccccc3)c3ccccc3)N2C1=O (stereo unspecified) + CCN1C(C(=O)NC23CCC(C(=O)O)(CC2)CC3)C(c2cccc(Cl)c2F)C2(C(=O)Nc3cc(Cl)ccc32)C12CCCCC2: N
- NC1CCC(NC2CC2c2ccccc2)CC1 (stereo unspecified) + CCN1C(C(=O)NC23CCC(C(=O)O)(CC2)CC3)C(c2cccc(Cl)c2F)C2(C(=O)Nc3cc(Cl)ccc32)C12CCCCC2: Y

Item Cn1ncnc1[C@H]1c2n[nH]c(=O)c3cc(F)cc(c23)N[C@@H]1c1ccc(F)cc1 + CCN1C(C(=O)NC23CCC(C(=O)O)(CC2)CC3)C(c2cccc(Cl)c2F)C2(C(=O)Nc3cc(Cl)ccc32)C12CCCCC2 : viability, T/C beneath 80%, strictly?
Y

API: query returns whether the molecule falls strictly under 80% in viability, T/C. Query: COc1c(OCCCN2CCOCC2)ccc2c3n(c(=NC(=O)c4cnc(N)nc4)nc12)CCN3 + CCN1C(C(=O)NC23CCC(C(=O)O)(CC2)CC3)C(c2cccc(Cl)c2F)C2(C(=O)Nc3cc(Cl)ccc32)C12CCCCC2
N

Just wondering, is viability, T/C of CCN1CCN(Cc2ccc(Nc3ncc(F)c(-c4cc(F)c5nc(C)n(C(C)C)c5c4)n3)nc2)CC1 + CCN1C(C(=O)NC23CCC(C(=O)O)(CC2)CC3)C(c2cccc(Cl)c2F)C2(C(=O)Nc3cc(Cl)ccc32)C12CCCCC2 below 80%?
N
